This collection of values is drawn from PubChem BioAssay.

experiment.notes: growth suppression of PTEN-deleted HCT116, pilot screen, cell-based, HCT116 clonal line, CellTiter-Glo (AID 824);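 also: 0% = 20 µM Hyamine control and 100% = vehicle cell control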
conditions.used: 60 h, at 10 µM, hits give low values
Inconclusive results are not listed.
value.type: viability (%)

1. COc1cccc(C(c2sc3ncnn3c2O)N2CCc3ccccc3C2)c1 (centres undefined)	93.2
2. Cn1nc(-c2ccc(Cl)cc2)c2cc(C(=O)N3CCCC3)sc21	85.7
3. O=C(C1CCC(Cn2c(=O)[nH]c3ccccc3c2=O)CC1)N1CCN(c2ccccc2)CC1 (centres undefined)	67.6
4. CCOc1ccc(/C=C\C(C)=N\O)cc1	96.3

---

Listing of recorded viability increase by entry.
experiment.notes: viability gain of MRP-1-high H69AR cells under doxorubicin, pilot screen, MRP-1 activator project, CellTiter-Glo, duplicate (AID 807);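 also: compound pretreatment 18-22 h then 72 h combined with doxorubicin; 0% = doxorubicin alone and 100% = vehicle without doxorubicin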
conditions.used: H69AR viability with doxorubicin, CellTiter-Glo luminescence; at 10 µM; hits give high values
value.type: viability increase (%)

1) CC1CCN(C(=O)c2cc(-c3ccccc3O)on2)CC1	-0.44
2) O=C(CCS(=O)NCc1ccccc1)NCc1ccccc1 (stereo not drawn)	-2.13
3) O=C(NCCCN1CCOCC1)c1cc(-c2ccc3c(c2)OCO3)nc2ccccc12	-3.78
4) COC(=O)c1ccc(NC(=O)CSc2nnc(COc3ccc4c(c3)CCCC4)o2)cc1	-3.92
5) CCCCn1c(CCNC(=O)CCC)nc2ccccc21	-0.74
6) Cc1c(C(=O)N2CCCC2)oc2c1-c1[nH]ncc1CC2	-1.8
7) O=C(Cn1nc(-c2ccccc2)ccc1=O)N1CCOCC1	-0.71
8) COc1cccc(C2NC(=O)NC(C)=C2C(=O)OCCSC)c1OC (stereo not drawn)	-0.87
9) CC1CCCC(NC(=O)c2ccc3c(c2)N(Cc2ccccc2)C(=O)CS3=O)C1C (stereo not drawn)	-3.1
10) Cc1cc(C)n(-c2nncc(-c3ccccc3)n2)n1	-2.22
11) Cc1c(C(=O)NCC2CCCO2)oc2ccc(S(=O)(=O)N3CCCCC3)cc12 (stereo not drawn)	-0.95
12) O=C(Nc1nccs1)c1ccc(Cl)s1	1.01
13) Cc1ccc(CNC(=O)CS(=O)Cc2nc(-c3cccs3)oc2C)cc1 (stereo not drawn)	-2.97
14) CCCc1nnc(SCC(=O)O)n1/N=C/c1ccc2c(c1)OCO2	-2.31
15) CC1Cc2ccccc2N1C1=NS(=O)(=O)c2ccccc21 (stereo not drawn)	-1.97
16) COc1ccc(NC(=O)CN(c2cc(C)cc(C)c2)S(=O)(=O)c2c(C)n[nH]c2C)cc1	-2.97
17) CC(C)OC(=O)CSc1nnc(-c2ccc(Cl)cc2)n1N	-0.58
18) CC(=O)c1ccc(OCC(C)C)c(CC(C(N)=O)C(N)=O)c1	-1.7
19) COc1ccc(-c2nc3cnccn3c2Nc2ccc3c(c2)OCO3)cc1	-6.6
20) COc1ccc(CN2CCNC(=O)C2CC(=O)O)c(OC)c1 (stereo not drawn)	-2.1
21) CCOc1ccc(C(=O)Nc2cc(=O)n(C)c(=O)n2C)cc1	-0.98
22) O=C(Nc1nnc(-c2cccs2)o1)c1ccco1	-4.39
23) Cc1cccc(Nc2ncnc3nc[nH]c23)c1	-1.96
24) COC(=O)C1C(O)=C(C=NCC(C)N=CC2=C(O)C(C(=O)OC)C(C)(C)CC2=O)C(=O)CC1(C)C (stereo not drawn)	-0.55
25) CCn1cc(Br)c(C(=O)Nc2ccc(F)c(Cl)c2)n1	-3.96
26) O=C(COC(=O)C1(c2ccccc2F)CCCC1)N1CCN(C(=O)c2ccco2)CC1	-2.48
27) O=C(NC1CCN(C(=O)N2c3ccccc3Sc3ccccc32)CC1)c1ccco1	-3.6
28) COC(=O)C1=C(C)n2cnnc2NC1c1ccc(Cl)cc1 (stereo not drawn)	0.28
29) Cc1ccc(S(=O)(=O)Cc2ccc(C(=O)N3CCCCCC3)o2)cc1	-1.93
30) O=C(NCCc1ccc(Cl)cc1)c1nnc(Cc2ccc(Cl)cc2)o1	0.2
31) CCN1CCN(Cc2nc3c(c(=O)n(C)c(=O)n3C)n2Cc2ccc(Cl)cc2Cl)CC1	-3.62
32) Cc1ccc(-n2c(C)cc(C(=O)OCC(=O)N(C)C3CCS(=O)(=O)C3)c2C)cc1 (stereo not drawn)	-1.95
33) COC(=O)c1ccc(-n2nnnc2SCC(=O)N2CCCCC2)cc1	-3
34) CC1(C)Oc2ccc3ccc(=O)oc3c2/C(=C/N)C1=O	-4.51
35) Cc1ccc(CCN2CC(C(=O)NCCCN3CCN(C)CC3)CC2=O)cc1 (stereo not drawn)	-2.38
36) COC(=O)c1ccc(NC(=O)CNC(=O)C2CCCCC2)cc1	-0.57
37) Cc1csc(=N)n1-c1ccc(Cl)cc1	0.86
38) O=C1CCc2cc(S(=O)(=O)NC(C(=O)NCc3cccnc3)c3ccccc3)ccc2N1 (stereo not drawn)	-2.98
